Reference source: ChEMBL document CHEMBL1201862

Each entry below carries its recorded IC50.
Biological target: Genome polyprotein (dengue virus type 2)
Sequence (P29990 2492-3391 limits assumed): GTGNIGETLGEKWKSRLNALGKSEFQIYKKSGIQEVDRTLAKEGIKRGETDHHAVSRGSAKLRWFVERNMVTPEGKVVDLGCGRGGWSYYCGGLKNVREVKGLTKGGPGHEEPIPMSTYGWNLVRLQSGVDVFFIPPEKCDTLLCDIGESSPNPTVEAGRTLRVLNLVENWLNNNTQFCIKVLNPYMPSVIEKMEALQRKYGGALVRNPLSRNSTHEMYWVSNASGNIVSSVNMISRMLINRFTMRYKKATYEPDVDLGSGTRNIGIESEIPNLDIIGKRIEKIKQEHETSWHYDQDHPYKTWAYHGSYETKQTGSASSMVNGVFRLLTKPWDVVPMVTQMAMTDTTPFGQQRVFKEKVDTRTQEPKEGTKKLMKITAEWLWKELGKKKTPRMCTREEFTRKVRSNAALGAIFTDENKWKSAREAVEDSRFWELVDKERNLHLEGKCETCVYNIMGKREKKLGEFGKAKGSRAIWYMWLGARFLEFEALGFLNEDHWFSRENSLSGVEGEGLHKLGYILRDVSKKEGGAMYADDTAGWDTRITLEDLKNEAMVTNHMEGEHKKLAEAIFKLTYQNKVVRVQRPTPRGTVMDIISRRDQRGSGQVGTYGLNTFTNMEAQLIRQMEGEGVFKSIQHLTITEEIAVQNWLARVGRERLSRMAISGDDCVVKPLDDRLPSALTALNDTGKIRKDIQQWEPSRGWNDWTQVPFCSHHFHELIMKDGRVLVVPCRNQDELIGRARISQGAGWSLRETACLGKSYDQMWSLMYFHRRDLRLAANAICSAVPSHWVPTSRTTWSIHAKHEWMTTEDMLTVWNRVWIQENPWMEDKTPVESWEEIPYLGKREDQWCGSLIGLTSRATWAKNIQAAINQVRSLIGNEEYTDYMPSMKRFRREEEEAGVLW
Assay: flavivirus cap methylation enzyme inhibition – biochemical, confirmation dose response, primary screen (AID 588689)
Type: functional
Activity calls are given as the source filed them. No rule for the calls is given here.
Assay readout: IC50

- Compound string: "COc1cc(-c2ccc(Nc3ccccc3C(=O)O)c(OC)c2)ccc1Nc1ccccc1C(=O)O"
  Observed: "18.8 µM (active)"
- Compound string: "CC(C)c1cccc(-c2ccc3c(c2)S(=O)(=O)c2cccc(C(=O)O)c2C3=O)c1"
  Observed: "66.2 µM (active)"
- Compound string: "COC(CNC(=O)c1ccc2c3c(onc13)-c1ccccc1C2=O)OC"
  Observed: "4.67 µM (active)"
- Compound string: "Cc1[nH][nH]c(=O)c1C(c1ccc(-c2ccc(C(=O)O)cc2)o1)c1c(C)[nH][nH]c1=O"
  Observed: "91.8 µM (active)"
- Compound string: "Cc1ccc2cc(C=C3C(=O)NC(=O)NC3=O)c(O)nc2c1"
  Observed: "79 µM (active)"
